experiment: folding stability dG unfold (combined trypsin and chymotrypsin); higher = more stable
property_measured: folding stability dG unfold (kcal/mol)
Numbers only, in kcal/mol.

Give folding stability dG unfold for each listed item.
1. SAGGSAGGSAGGSDDPDGKPKPQIPPIKVEPIPIKDPNGWSIEIYYFPWNGMLIISFYNSAGGSAGGSAGGS [r4_305_TrROS]
2. SAGGSAGGPVITFPWNDIPELLERARENGDPEYYIRVSPDDPGNFTIMPPEEAEENGMPVIPLDSAGGSAGG [r6_710_TrROS]
3. SAGGKPNEKVKIKIKNKDGSEETIEIKVDEEVKIKIKFNGEEKEITIKKGETLTITLENAEIEVEKVSAGGS [r16_456_TrROS_Hall]
4. SAGGSAGGSAGGSTVTVTSEEEAQEAREALAAERAAAEPGAEPPEAFPVEVEVVPPELRSAGGSAGGSAGGS [r4_498_JUSTAS]
5. SAGGMKEITLPNGVKITEVIEKDGYYYIKIYNKKTGKVYEIKVKKGEKIEIKFPKGSTVTKIEIVKKSAGGS [r16_123_TrROS_Hall]
6. SAEIPPDLIAVILGIEPYRFGERDFLVITAAIFRPEEPDAEVTLYTIVIEGDKIVSITPSRYRVPPEALSAG [r14_651_TrMRF]

## Output
[4.26, -0.668, 1.94, 0.0161, 2.8, 3.55]

Give folding stability dG unfold for each listed item.
1. SAGGSAGGGSFTLTEEPGGVLTITTPDKTLTVNLEGVTPDPNSDTTFSFTLSLDPDDSASVTSSSAGGSAGG [r6_202_JUSTAS]
2. SAGGSAGGSMTLKVTLPNGKVIELPLPEELENIPAETIAKLLGEENVRLELYSPDGVPYDFGASAGGSAGGS [r12_411_TrMRF]
3. SAGGSAPPTYTFMIPIKEIYVPDPDNGKPKPIPVEEFADFLMPKFGIDVEILDVHPDWIQITVTPDSAGGSA [r15_55_TrROS]
4. SAGKVEIKEVSVDPNTDEVKVTFKNPNVPPGTKIVVYPKDGKPIEFETEPNKEVTLTLPKDVEKIEFEGSAG [r14_671_TrMRF]
5. SAGGSAGGSDNVKIEWEYNPENGVYTHEVYYDDGRPVTIIINPAEGPIWVFDPPDGKPIAPIPSAGGSAGGS [r12_657_TrROS]

## Output
1: 1.47; 2: 1.03; 3: 1.73; 4: 0.0919; 5: 1.07

Give folding stability dG unfold for each listed item.
1. SAGGSAGGSAMTPETIKEKYPNVDYSPSPLGGKTVYTFTFPSGSTVTVTFNPGSATITTIAGSAGGSAGGSA [r18_13_JUSTAS]
2. SAGGSAMPPNMKKVPISIHIPAENYKRDPDGKWKFTADELARHIQRGFRQRFGMPIKKIDVHVHPPSAGGSA [r15_415_TrROS]

## Output
1: 2.96; 2: -0.0271

From: the supplement of paper PMC12764529
